Task for the reader: assign each of the following compounds its reported pIC50.
- Tested on: HepG2
- TEST_SUMMARY: Anticancer activity against human HepG2 cells assessed as cell growth inhibition measured by MTT assay
- Assay type: functional, cell-based
Give bare numbers, as −log10 of the molar value.

compound=C#Cc1cccc(Nc2ncnc3cc(OCCOC)c(OCCOC)cc23)c1 experimental_endpoint=pIC50 reading=4.75
compound="COc1ccc(C(Nc2ccccc2)n2c(=O)ccc3cc(O)ccc32)cc1 (stereo unspecified)" experimental_endpoint=pIC50 reading=4.33
compound="COc1ccc(C(Nc2ccc(Br)cc2)n2c(=O)ccc3cc(O)ccc32)cc1 (stereo unspecified)" experimental_endpoint=pIC50 reading=4.74
compound="COc1ccc(C(Nc2ccc(Cl)cc2)n2c(=O)ccc3cc(O)ccc32)cc1 (stereo unspecified)" experimental_endpoint=pIC50 reading=4.67
compound="COc1ccc(NC(c2ccc(OC)cc2)n2c(=O)ccc3cc(O)ccc32)cc1 (stereo unspecified)" experimental_endpoint=pIC50 reading=4.21

Entry under review: COc1ccc(C(Nc2ccc([N+](=O)[O-])cc2)n2c(=O)ccc3cc(O)ccc32)cc1 (stereo unspecified) . Reported pIC50? 4.53
